Origin of values: patent US20180139962A1

protocolDescription: log P determination by HPLC on reversed-phase column (C 18), EEC Directive 79/831 Annex V.A8
Assay type: physicochemical
testSettings: C 18 reversed phase, 40° C., 0.1% aqueous formic acid and acetonitrile, linear gradient 10% to 90% acetonitrile
I'd appreciate it if you could supply logP values for the items below.
Number only, please.

Query: So what's the measured logP for this one? Cn1nc(C(F)F)c(C(=O)N(Cc2sc(Br)cc2C2(Cl)CC2)C2CC2)c1F
Response: 4.15

Query: So what's the measured logP for this one? Cn1nc(C(F)F)c(C(=O)N(Cc2sccc2C2(C)CC2)C2CC2)c1Cl
Response: 3.85

Query: So what's the measured logP for this one? Cn1nc(C(F)F)c(C(=O)N(Cc2cc(Cl)cnc2C2(C)CC2)C2CC2)c1Cl
Response: 3.09

Query: So what's the measured logP for this one? Cn1nc(C(F)F)c(C(=O)N(Cc2cc(Br)cnc2C2(C)CC2)C2CC2)c1F
Response: 2.91

Query: So what's the measured logP for this one? Cn1nc(C(F)F)c(C(=S)N(Cc2cccnc2C2(C)CC2)C2CC2)c1F
Response: 1.53

Query: So what's the measured logP for this one? Cc1cc(C2(C)CC2)c(CN(C(=O)c2c(C(F)F)nn(C)c2F)C2CC2)s1
Response: 4.13

Query: So what's the measured logP for this one? Cn1nc(C(F)F)c(C(=O)N(Cc2sccc2C2(Cl)CC2)C2CC2)c1Cl
Response: 3.55

Query: So what's the measured logP for this one? Cc1cc(C2(C)CC2)c(CN(C(=O)c2c(C(F)F)nn(C)c2Cl)C2CC2)s1
Response: 4.27

Query: So what's the measured logP for this one? Cn1nc(C(F)F)c(C(=O)N(Cc2sccc2C2(Cl)CC2)C2CC2)c1F
Response: 3.37
